Attribution: patent US4395552A

Where a name gives a salt, the structure may show the parent alone.
Consider molecules characterized by their MIC with Escherichia coli.
Output spec: scalar in µg/mL, unitless text.

Worked set:
N=C(NCCCCCCNC(=N)Nc1nc2ccccc2[nH]1)Nc1nc2ccccc2[nH]1 [Compound 1024, dihydrochloride]    4
N=C(NCCNC(=N)Nc1nc2ccccc2[nH]1)Nc1nc2ccccc2[nH]1 [Compound 1069, dihydrochloride]    32
N=C(NCCCCCCNC(=N)Nc1nc2cc(Cl)c(S(N)(=O)=O)cc2[nH]1)Nc1nc2cc(Cl)c(S(N)(=O)=O)cc2[nH]1 [Compound 1045, dihydrochloride]    8

Here is another molecule to look at.
Please state recorded MIC (tested on Escherichia coli) of N=C(NCCCCCCCNC(=N)Nc1nc2ccccc2[nH]1)Nc1nc2ccccc2[nH]1 [Compound 1046, dihydrochloride]
8

====

experiment notes: LD50 upon oral administration to mice
stated conditions: mouse, in vivo
Where a name gives a salt, the structure may show the parent alone.
quantity measured: LD50 (mg/kg)
Respond with the bare value in mg/kg.

Which value of LD50 has been reported for N=C(NCCCCCCNC(=N)Nc1nc2ccccc2[nH]1)Nc1nc2ccccc2[nH]1 [Compound 1024, dihydrochloride] in the records?
4000

====

System: Pseudomonas aeruginosa
experiment notes: minimum inhibitory concentration, antibacterial spectrum (Table I)
Format: cell-based
stated conditions: 32 P.P.M.
Structures can show the parent of a compound that is named as a salt.
Measured MIC, listed per entry for reference.
# output: numeric value plus its unit

Worked examples, 3 compounds total:
Cc1ccc2nc(NC(=N)NCCCCCCNC(=N)Nc3nc4ccc(C)cc4[nH]3)[nH]c2c1 [Compound 1081, dihydrochloride dihydrate]    8 µg/mL
Cc1ccc2nc(NC(=N)NCCCCCNC(=N)Nc3nc4ccc(C)cc4[nH]3)[nH]c2c1 [Compound 1074]    8 µg/mL
N=C(NCCCCCCNC(=N)Nc1nc2ccccc2[nH]1)Nc1nc2ccccc2[nH]1 [Compound 1024, dihydrochloride]    16 µg/mL

Please examine the following record next.
Checklist item: MIC tested on Pseudomonas aeruginosa, entry Cc1ccc2nc(NC(=N)NCCNC(=N)Nc3nc4ccc(C)cc4[nH]3)[nH]c2c1 [Compound 1072, dihydrochloride monohydrate] , value?
16 µg/mL

====

Structures can show the parent of a compound that is named as a salt.
Read-out record for Escherichia coli: MIC
Quick reminder: number only, in µg/mL, skip the unit.

N=C(NCCCCCCCCNC(=N)Nc1nc2ccccc2[nH]1)Nc1nc2ccccc2[nH]1 [Compound 1080, dihydrochloride dihydrate]    1
N=C(NCCCCCNC(=N)Nc1nc2ccccc2[nH]1)Nc1nc2ccccc2[nH]1 [Compound 1079, dihydrochloride dihydrate]    8
Cc1ccc2nc(NC(=N)NCCCCCCNC(=N)Nc3nc4ccc(C)cc4[nH]3)[nH]c2c1 [Compound 1081, dihydrochloride dihydrate]    1
Cc1ccc2nc(NC(=N)NCCCCCNC(=N)Nc3nc4ccc(C)cc4[nH]3)[nH]c2c1    4
Cc1ccc2nc(NC(=N)NCCNC(=N)Nc3nc4ccc(C)cc4[nH]3)[nH]c2c1 [Compound 1072, dihydrochloride monohydrate]    4

Now consider a different compound.
What is its MIC for Escherichia coli? Entry: N=C(NCCCCCNC(=N)Nc1nc2ccc(Cl)cc2[nH]1)Nc1nc2ccc(Cl)cc2[nH]1 [Compound 1075, dihydrochloride hydrate]
2
